SYSTEM TESTED: GABA-A receptor; anion channel (Bos taurus) (UniProt P10063+P08220+P20237+P08219+P10064+P22300)
PROTOCOL NOTES: Percentage inhibition of [3H]flunitrazepam binding to benzodiazepine receptor from bovine cerebral cortex at a concentration of 250 uM
Format: tissue-based
Exercise: state measured inhibition for each of the molecules provided.
Report as a plain number; the unit % is understood.

-- ask Recorded inhibition of `O=C(N[C@H](Cc1ccccc1)C(=O)O)C(=O)c1c[nH]c2ccccc12` , please.
-- reply 32

-- ask Next: `CCOC(=O)[C@H](Cc1ccccc1)NC(=O)C(=O)c1c[nH]c2ccc(OC)cc12`
-- reply 77

-- ask Next: `CCOC(=O)[C@@H](Cc1ccccc1)NC(=O)C(=O)c1c[nH]c2ccccc12`
-- reply 55

-- ask Next: `C[C@@H](NC(=O)C(=O)c1c[nH]c2ccccc12)C(=O)O`
-- reply 32

-- ask Next: `COc1ccc2[nH]cc(C(=O)C(=O)N[C@@H](Cc3ccccc3)C(=O)O)c2c1`
-- reply 50

-- ask Next: `CCOC(=O)[C@H](Cc1ccccc1)NC(=O)C(=O)c1c[nH]c2ccccc12`
-- reply 69

-- ask Next: `O=C(N[C@H](Cc1ccccc1)C(=O)O)C(=O)c1c[nH]c2ccc(Br)cc12`
-- reply 51

-- ask Next: `CCOC(=O)[C@@H](Cc1ccccc1)NC(=O)C(=O)c1c[nH]c2ccc(OC)cc12`
-- reply 30

-- ask Next: `O=C(N[C@@H](Cc1ccccc1)C(=O)O)C(=O)c1c[nH]c2ccccc12`
-- reply 47

-- ask Next: `COc1ccc2[nH]cc(C(=O)C(=O)N[C@H](Cc3ccccc3)C(=O)O)c2c1`
-- reply 18

---

Exercise: state measured pIC50 for each of the molecules provided.
SYSTEM TESTED: GABA-A receptor; anion channel
PROTOCOL NOTES: Inhibitory concentration against [3H]flunitrazepam binding to benzodiazepine receptor from bovine cerebral cortex
Hey, just a heads up that pIC50 is the negative log base 10 of the concentration in molar.

-- ask Recorded pIC50 of `CCOC(=O)[C@@H](Cc1ccccc1)NC(=O)C(=O)c1c[nH]c2ccc([N+](=O)[O-])cc12` , please.
-- reply 5.55

-- ask Next: `CCOC(=O)[C@@H](C)NC(=O)C(=O)c1c[nH]c2ccc([N+](=O)[O-])cc12`
-- reply 5.52

-- ask Next: `CCOC(=O)[C@H](C)NC(=O)C(=O)c1c[nH]c2ccccc12`
-- reply 5.12

-- ask Next: O=C(NC(Cc1ccccc1)C(=O)O)C(=O)c1c[nH]c2ccc(Br)cc12 (configuration not stated)
-- reply 3.80

-- ask Next: `C[C@@H](NC(=O)C(=O)c1c[nH]c2ccc(Br)cc12)C(=O)O`
-- reply 4.10

-- ask Next: `CCOC(=O)[C@H](Cc1ccccc1)NC(=O)C(=O)c1c[nH]c2ccc(Br)cc12`
-- reply 4.26

-- ask Next: `C[C@H](NC(=O)C(=O)c1c[nH]c2ccc([N+](=O)[O-])cc12)C(=O)O`
-- reply 5.52

-- ask Next: `O=C(N[C@@H](Cc1ccccc1)C(=O)O)C(=O)c1c[nH]c2ccc(Br)cc12`
-- reply 4.22

-- ask Next: `CCOC(=O)[C@@H](C)NC(=O)C(=O)c1c[nH]c2ccccc12`
-- reply 4.77

-- ask Next: CC(NC(=O)C(=O)c1c[nH]c2ccccc12)C(=O)O (configuration not stated)
-- reply 3.98

-- ask Next: `CCOC(=O)[C@H](Cc1ccccc1)NC(=O)C(=O)c1c[nH]c2ccc([N+](=O)[O-])cc12`
-- reply 7.00

-- ask Next: `CCOC(=O)[C@@H](C)NC(=O)C(=O)c1c[nH]c2ccc(Br)cc12`
-- reply 4.28

-- ask Next: `CCOC(=O)[C@H](C)NC(=O)C(=O)c1c[nH]c2ccc(OC)cc12`
-- reply 6.05

-- ask Next: `COc1ccc2[nH]cc(C(=O)C(=O)N[C@@H](C)C(=O)O)c2c1`
-- reply 4.66

-- ask Next: `O=C(N[C@@H](Cc1ccccc1)C(=O)O)C(=O)c1c[nH]c2ccc([N+](=O)[O-])cc12`
-- reply 5.40

-- ask Next: CCOC(=O)C(Cc1ccccc1)NC(=O)C(=O)c1c[nH]c2ccc(Br)cc12 (configuration not stated)
-- reply 3.74

-- ask Next: `C[C@H](NC(=O)C(=O)c1c[nH]c2ccc(Cl)cc12)C(=O)O`
-- reply 5.30

-- ask Next: `C[C@@H](NC(=O)C(=O)c1c[nH]c2ccc([N+](=O)[O-])cc12)C(=O)O`
-- reply 4.72

-- ask Next: `CCOC(=O)[C@@H](Cc1ccccc1)NC(=O)C(=O)c1c[nH]c2ccc(Cl)cc12`
-- reply 4.35

-- ask Next: `O=C(N[C@H](Cc1ccccc1)C(=O)O)C(=O)c1c[nH]c2ccc(Cl)cc12`
-- reply 4.32

-- ask Next: `CCOC(=O)[C@@H](C)NC(=O)C(=O)c1c[nH]c2ccc(OC)cc12`
-- reply 3.96

-- ask Next: `C[C@@H](NC(=O)C(=O)c1c[nH]c2ccccc12)C(=O)O`
-- reply 3.52

-- ask Next: `CCOC(=O)[C@H](C)NC(=O)C(=O)c1c[nH]c2ccc(Br)cc12`
-- reply 6.74

-- ask Next: `CCOC(=O)[C@H](C)NC(=O)C(=O)c1c[nH]c2ccc(Cl)cc12`
-- reply 6.82

-- ask Next: `C[C@@H](NC(=O)C(=O)c1c[nH]c2ccc(Cl)cc12)C(=O)O`
-- reply 4.34

-- ask Next: CCOC(=O)C(C)NC(=O)C(=O)c1c[nH]c2ccccc12 (configuration not stated)
-- reply 4.89

-- ask Next: CC(NC(=O)C(=O)c1c[nH]c2ccc(Br)cc12)C(=O)O (configuration not stated)
-- reply 4.40

-- ask Next: `O=C(N[C@H](Cc1ccccc1)C(=O)O)C(=O)c1c[nH]c2ccc(Br)cc12`
-- reply 3.61

-- ask Next: `C[C@H](NC(=O)C(=O)c1c[nH]c2ccccc12)C(=O)O`
-- reply 4.32

-- ask Next: `COc1ccc2[nH]cc(C(=O)C(=O)N[C@H](C)C(=O)O)c2c1`
-- reply 3.77

-- ask Next: `C[C@H](NC(=O)C(=O)c1c[nH]c2ccc(Br)cc12)C(=O)O`
-- reply 5.15

-- ask Next: `CCOC(=O)[C@H](Cc1ccccc1)NC(=O)C(=O)c1c[nH]c2ccc(Cl)cc12`
-- reply 4.52

-- ask Next: `CCOC(=O)[C@H](C)NC(=O)C(=O)c1c[nH]c2ccc([N+](=O)[O-])cc12`
-- reply 7.15

-- ask Next: `CCOC(=O)[C@@H](Cc1ccccc1)NC(=O)C(=O)c1c[nH]c2ccc(Br)cc12`
-- reply 3.66

-- ask Next: `O=C(N[C@@H](Cc1ccccc1)C(=O)O)C(=O)c1c[nH]c2ccc(Cl)cc12`
-- reply 4.92

-- ask Next: `CCOC(=O)[C@@H](C)NC(=O)C(=O)c1c[nH]c2ccc(Cl)cc12`
-- reply 4.60

-- ask Next: `O=C(N[C@H](Cc1ccccc1)C(=O)O)C(=O)c1c[nH]c2ccc([N+](=O)[O-])cc12`
-- reply 4.68
